B1: Protein S100-G, residues 1 to 79; numbered along this chain, P02633 (parent)
chain: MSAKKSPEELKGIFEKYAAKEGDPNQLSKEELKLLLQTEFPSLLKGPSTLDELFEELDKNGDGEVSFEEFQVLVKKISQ

# Variants of: B1
# Assay text: abundance fitness (aPCA) (normalised: wild type 0, dead -1); higher = more abundant; growth selection in yeast, the domain comes from the species named
# Experimental context: Bos taurus
Entries and their measured abundance fitness follow.
// print number alone

>>> df
   alteration  number
0        E21Y  -0.058

// query Using the record for "Q79Y" , report its abundance fitness.
// result -0.148

// query Using the record for "S2A" , report its abundance fitness.
// result -0.138

// query Using the record for "G61M" , report its abundance fitness.
// result -0.026

// query Using the record for "P41Q" , report its abundance fitness.
// result 0.025

// query Using the record for "E9F" , report its abundance fitness.
// result -0.128

// query Using the record for "E68G" , report its abundance fitness.
// result -0.06

// query Using the record for "L44E" , report its abundance fitness.
// result 0.058

// query Using the record for "L35H" , report its abundance fitness.
// result -0.724

// query Using the record for "I13K" , report its abundance fitness.
// result -0.173

// query Using the record for "F40D" , report its abundance fitness.
// result -0.099

// query Using the record for "K59F" , report its abundance fitness.
// result 0.098
